- study-target: T1, Nbp2, Q12163
- T1 sequence (Q12163 103-180, looked up): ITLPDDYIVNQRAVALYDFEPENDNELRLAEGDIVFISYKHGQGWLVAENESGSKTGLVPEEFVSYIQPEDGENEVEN
- experiment-description: SPOT array
- details: median of control spots 357
Classes by SPOT intensity: low band: < 1; middle band: ≥ 1 and < 10; high band: ≥ 10

Past entries and their recorded results:
[
  {
    "binder": "NFLRLLIGLPSQNEL",
    "qualitative-label": "high band"
  },
  {
    "binder": "HKVLRPFLLRRLKKD",
    "qualitative-label": "high band"
  }
]

[in] Determine which band this binder sits in: VSKLRSPNTPRRLRK
[out] low band

[in] Now consider RRTRLRPPTPLSQLL .
[out] high band

[in] NNQRRKPLLLNIGDH , same question.
[out] high band

[in] Now try KKEKKPPKIPKKVYT .
[out] low band
